target: op-mu (Homo sapiens)
Sequence (P35372 whole entry): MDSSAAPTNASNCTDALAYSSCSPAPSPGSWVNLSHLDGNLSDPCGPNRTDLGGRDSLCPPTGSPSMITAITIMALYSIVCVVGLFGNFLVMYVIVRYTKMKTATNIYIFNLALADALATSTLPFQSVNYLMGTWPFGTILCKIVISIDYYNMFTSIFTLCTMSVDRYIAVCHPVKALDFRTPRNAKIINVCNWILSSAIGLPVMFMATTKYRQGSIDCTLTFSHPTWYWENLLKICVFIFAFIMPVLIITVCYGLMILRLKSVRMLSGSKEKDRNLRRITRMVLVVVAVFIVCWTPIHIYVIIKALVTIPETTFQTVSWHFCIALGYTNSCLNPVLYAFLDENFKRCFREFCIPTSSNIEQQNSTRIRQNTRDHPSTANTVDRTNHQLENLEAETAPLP
pIC50: −log10 of the molar value.

| Entry Smiles | pIC50 |
| --- | --- |
| O=C(O)[C@H]1C2CCC(CC2)[C@@H]1Nc1nc(-c2n[nH]c3ncc(F)cc23)nc(C2CC2)c1F | < 5.00 |

* * *

target: H1 (Homo sapiens); test: cell-based
Sequence (P35367 whole entry): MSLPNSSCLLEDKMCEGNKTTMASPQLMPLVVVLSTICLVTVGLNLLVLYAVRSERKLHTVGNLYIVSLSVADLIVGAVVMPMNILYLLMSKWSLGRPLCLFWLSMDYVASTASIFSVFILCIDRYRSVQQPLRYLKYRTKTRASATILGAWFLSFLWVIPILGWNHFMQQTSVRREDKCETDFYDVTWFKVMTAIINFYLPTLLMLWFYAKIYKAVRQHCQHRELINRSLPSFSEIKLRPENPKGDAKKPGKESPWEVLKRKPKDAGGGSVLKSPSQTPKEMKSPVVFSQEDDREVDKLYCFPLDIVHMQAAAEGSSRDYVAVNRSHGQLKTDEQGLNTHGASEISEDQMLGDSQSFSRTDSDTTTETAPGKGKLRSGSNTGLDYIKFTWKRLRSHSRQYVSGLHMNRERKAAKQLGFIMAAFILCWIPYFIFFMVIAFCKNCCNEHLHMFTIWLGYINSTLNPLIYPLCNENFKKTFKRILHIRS
pEC50: −log10 of the molar value.

| Entry Smiles | pEC50 |
| --- | --- |
| O=C(O)[C@H]1C2CCC(CC2)[C@@H]1Nc1nc(-c2n[nH]c3ncc(F)cc23)nc(C2CC2)c1F | < 4.92 |

* * *

target: influenza virus polymerase (PB1, PB2, NP, PA from A/California/04/2009 (H1N1) pdm09) (Influenza A virus, UniProt C3W5R8+C3W5R9); type: cell-based; settings: read-out: IC50, experiment 2
pIC50: −log10 of the molar value.

| Molecule | pIC50 |
| --- | --- |
| O=C(O)[C@H]1C2CCC(CC2)[C@@H]1Nc1nc(-c2c[nH]c3ncc(F)cc23)ncc1F [VX-787, reference compound] | 8.91 |
| O=C(O)[C@H]1C2CCC(CC2)[C@@H]1Nc1nc(-c2n[nH]c3ncc(F)cc23)nc(C2CC2)c1F | 9.33 |
